melting point: recorded values

{"smilesText": "COc1ccc(-c2csc(NN=Cc3ccc(N4CCN(C)CC4)cc3)n2)cc1", "measure": "melting point", "recordedValue": "226 to 228 °C"}

Lab note: measured melting point of CN1CCN(c2ccc(C=NNc3nc(-c4ccc(-c5ccccc5)cc4)cs3)cc2)CC1 was 275 to 276 °C

Sure, the documented melting point for Cc1ccc(-c2csc(NN=Cc3ccc(N4CCN(C)CC4)cc3)n2)cc1 is 252 to 254 °C

The measured melting point associated with CN1CCN(c2ccc(C=NNc3nc(-c4ccc(F)cc4)cs3)cc2)CC1 reads 247 to 249 °C

// recorded melting point for CN1CCN(c2ccc(C=NNc3nc(-c4ccc(Br)cc4)cs3)cc2)CC1 : 253 to 255 °C
